These data points were gathered from the supplement of paper PMC12645437.

- Target desc: T1, CRBN, Q96SW2;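 also: pooled lentiviral library of zinc finger degron-EGFP fusions in mCherry-positive Jurkat cells, FACS-sorted after compound exposure, with degron abundance counted by next-generation sequencing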
- T1 chain: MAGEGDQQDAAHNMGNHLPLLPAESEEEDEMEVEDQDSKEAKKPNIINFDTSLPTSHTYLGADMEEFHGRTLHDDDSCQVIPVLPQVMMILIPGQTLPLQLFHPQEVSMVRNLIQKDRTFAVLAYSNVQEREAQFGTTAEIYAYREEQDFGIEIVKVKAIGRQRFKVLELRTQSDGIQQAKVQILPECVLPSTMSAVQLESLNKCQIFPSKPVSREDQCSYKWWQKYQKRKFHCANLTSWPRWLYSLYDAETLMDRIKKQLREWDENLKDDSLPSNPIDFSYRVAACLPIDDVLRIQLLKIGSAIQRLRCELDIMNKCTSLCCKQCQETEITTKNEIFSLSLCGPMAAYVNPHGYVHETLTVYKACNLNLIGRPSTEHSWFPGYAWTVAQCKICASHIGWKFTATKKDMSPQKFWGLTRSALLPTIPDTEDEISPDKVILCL
- Assay summary: log2 fold change of degron read counts, EGFP-low vs EGFP+ sorted cells (limma voom), compound-induced degradation; higher = more compound-induced degradation of the degron-EGFP fusion; degrons are variants of IKZF1/3 zinc finger 2; compound dose not given here
- Run conditions: Jurkat; 18 h; compound: compound 22 (5-morpholino-thalidomide)
In all, about 8,300 sequences were measured (“log2 fold change of degron read counts, EGFP-low vs EGFP+ sorted cells (limma voom), compound-induced degradation”: median about -1.1, highest 2% from about 3.2 on). The entries come from a sample that favours the highest values as a whole.
Measured metric: log2 fold change of degron read counts
Respond numerically, and do not add a unit to the figure.

These solved cases illustrate the format of a correct answer.
Residue codes | Test result
LGCPICGFSCTQKGNLLRHIKL [46L_47G_49P_50I_52G_53F_54S_55C_67L_, Q9UKT9] | 2.62
FDCNQCGASFTQKGNLLRHIKL [46F_47D_49N_50Q_52G_53A_54S_55F_67L_, Q9UKT9] | -2.73
FVCNQCGHVFTQKGNLLRHIKL [46F_47V_49N_50Q_52G_53H_54V_55F_67L_, Q9UKT9] | -3.07
LLCEICGFNCTQKGNLLRHIKL [46L_47L_49E_50I_52G_53F_54N_55C_67L_, Q9UKT9] | -1.96
FICPICGRVFTQKGNLLRHIKL [46F_47I_49P_50I_52G_53R_54V_55F_67L_, Q9UKT9] | -0.445

Attention now shifts to the item below.
q: Report log2 fold change of degron read counts for FDCEICGREFTQKGNLLRHIKL [46F_47D_49E_50I_52G_53R_54E_55F_67L_, Q9UKT9] please.
a: -2.29
